# TGT: N-type calcium channel (Homo sapiens, UniProt Q00975)
# Sequence (Q00975 whole entry): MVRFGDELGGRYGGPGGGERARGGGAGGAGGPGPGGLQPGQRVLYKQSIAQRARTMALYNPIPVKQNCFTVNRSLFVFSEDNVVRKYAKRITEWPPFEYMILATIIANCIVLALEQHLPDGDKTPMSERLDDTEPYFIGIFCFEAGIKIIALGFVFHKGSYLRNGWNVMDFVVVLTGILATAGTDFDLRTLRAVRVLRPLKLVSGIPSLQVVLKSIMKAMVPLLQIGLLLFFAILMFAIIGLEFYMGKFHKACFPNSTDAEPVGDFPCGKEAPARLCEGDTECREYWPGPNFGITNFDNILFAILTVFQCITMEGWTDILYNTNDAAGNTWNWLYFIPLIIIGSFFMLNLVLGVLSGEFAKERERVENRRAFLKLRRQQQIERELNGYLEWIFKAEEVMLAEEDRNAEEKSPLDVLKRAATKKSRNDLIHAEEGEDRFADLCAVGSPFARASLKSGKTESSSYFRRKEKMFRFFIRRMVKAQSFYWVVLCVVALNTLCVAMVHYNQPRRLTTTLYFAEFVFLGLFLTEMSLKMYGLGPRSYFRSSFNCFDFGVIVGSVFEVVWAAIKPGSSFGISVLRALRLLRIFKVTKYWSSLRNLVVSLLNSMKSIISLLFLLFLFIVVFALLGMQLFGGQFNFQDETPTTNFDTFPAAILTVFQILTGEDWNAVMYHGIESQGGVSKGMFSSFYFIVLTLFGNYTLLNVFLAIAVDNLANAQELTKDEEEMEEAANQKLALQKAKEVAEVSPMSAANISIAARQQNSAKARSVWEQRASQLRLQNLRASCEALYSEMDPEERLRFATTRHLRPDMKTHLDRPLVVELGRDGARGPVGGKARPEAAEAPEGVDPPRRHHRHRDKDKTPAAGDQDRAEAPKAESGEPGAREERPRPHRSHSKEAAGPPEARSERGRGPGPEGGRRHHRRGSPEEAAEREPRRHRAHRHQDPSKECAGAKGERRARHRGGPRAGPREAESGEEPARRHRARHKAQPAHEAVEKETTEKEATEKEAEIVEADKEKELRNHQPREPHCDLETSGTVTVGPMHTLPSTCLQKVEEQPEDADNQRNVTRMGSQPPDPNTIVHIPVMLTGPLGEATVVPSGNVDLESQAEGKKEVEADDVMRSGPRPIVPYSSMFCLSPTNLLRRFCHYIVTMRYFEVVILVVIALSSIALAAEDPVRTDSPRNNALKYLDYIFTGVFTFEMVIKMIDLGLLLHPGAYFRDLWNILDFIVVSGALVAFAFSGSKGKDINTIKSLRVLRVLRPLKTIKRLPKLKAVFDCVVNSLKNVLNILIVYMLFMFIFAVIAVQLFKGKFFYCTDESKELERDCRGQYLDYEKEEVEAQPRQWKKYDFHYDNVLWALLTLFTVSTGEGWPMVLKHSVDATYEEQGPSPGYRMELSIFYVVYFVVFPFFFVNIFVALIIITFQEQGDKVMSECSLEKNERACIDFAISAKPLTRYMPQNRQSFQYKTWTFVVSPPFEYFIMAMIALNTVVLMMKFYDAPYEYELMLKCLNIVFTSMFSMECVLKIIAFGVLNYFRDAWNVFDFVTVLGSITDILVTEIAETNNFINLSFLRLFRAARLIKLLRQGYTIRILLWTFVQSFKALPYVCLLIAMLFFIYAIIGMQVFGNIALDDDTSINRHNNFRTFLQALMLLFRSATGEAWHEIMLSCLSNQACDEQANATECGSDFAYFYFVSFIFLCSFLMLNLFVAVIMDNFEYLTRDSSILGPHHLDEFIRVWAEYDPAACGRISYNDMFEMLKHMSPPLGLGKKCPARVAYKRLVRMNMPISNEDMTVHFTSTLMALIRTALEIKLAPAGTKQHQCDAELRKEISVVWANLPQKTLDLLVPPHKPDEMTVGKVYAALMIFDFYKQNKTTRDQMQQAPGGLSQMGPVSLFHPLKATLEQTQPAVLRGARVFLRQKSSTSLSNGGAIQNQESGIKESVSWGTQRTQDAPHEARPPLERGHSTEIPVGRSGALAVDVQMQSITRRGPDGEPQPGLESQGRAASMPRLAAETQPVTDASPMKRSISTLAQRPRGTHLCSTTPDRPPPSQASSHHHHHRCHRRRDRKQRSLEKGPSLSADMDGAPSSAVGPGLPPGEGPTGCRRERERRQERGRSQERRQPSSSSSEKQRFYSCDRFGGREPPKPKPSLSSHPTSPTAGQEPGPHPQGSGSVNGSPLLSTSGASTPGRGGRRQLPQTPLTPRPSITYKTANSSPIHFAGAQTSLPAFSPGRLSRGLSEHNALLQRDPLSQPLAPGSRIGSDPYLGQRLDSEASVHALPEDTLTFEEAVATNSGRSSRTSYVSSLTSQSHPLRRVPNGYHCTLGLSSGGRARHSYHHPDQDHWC
# Sequence (P54284 whole entry partner): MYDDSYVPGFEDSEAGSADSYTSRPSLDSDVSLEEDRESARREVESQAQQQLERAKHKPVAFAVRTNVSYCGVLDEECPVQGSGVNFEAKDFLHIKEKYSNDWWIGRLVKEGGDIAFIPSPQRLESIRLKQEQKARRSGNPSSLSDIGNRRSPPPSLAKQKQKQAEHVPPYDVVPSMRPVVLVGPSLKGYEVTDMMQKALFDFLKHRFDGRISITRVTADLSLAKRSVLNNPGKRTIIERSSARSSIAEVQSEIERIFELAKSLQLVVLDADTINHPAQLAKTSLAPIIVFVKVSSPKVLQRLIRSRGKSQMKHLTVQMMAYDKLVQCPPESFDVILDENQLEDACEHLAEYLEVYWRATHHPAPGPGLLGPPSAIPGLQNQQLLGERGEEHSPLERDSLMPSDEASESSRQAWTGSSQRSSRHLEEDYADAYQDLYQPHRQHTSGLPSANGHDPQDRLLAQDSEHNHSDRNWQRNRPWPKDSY
# Sequence (P54289 25-956 partner limits assumed): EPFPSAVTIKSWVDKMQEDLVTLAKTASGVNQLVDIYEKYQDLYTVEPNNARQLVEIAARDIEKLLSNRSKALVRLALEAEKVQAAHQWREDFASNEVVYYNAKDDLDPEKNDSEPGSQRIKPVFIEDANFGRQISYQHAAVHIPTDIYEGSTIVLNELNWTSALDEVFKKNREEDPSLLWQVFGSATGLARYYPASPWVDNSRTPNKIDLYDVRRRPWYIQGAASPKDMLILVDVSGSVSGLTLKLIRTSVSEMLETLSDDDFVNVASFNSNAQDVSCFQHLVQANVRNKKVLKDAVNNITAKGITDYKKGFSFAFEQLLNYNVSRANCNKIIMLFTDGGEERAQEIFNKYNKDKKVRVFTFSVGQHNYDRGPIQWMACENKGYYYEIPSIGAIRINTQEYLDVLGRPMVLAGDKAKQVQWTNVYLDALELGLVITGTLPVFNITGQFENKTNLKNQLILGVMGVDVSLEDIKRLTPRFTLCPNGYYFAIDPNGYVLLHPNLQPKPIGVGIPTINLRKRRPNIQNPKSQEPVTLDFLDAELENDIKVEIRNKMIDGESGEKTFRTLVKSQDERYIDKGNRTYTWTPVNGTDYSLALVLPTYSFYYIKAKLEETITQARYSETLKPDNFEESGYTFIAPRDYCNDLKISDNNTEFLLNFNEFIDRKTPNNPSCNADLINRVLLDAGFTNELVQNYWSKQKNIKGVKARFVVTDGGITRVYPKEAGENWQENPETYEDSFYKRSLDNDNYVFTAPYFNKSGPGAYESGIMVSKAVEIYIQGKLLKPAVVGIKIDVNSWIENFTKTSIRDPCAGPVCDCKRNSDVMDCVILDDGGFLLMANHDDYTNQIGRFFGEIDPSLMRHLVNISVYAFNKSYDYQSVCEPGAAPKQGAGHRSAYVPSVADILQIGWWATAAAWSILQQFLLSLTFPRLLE
# Sequence (P54289 957-1103 partner limits assumed): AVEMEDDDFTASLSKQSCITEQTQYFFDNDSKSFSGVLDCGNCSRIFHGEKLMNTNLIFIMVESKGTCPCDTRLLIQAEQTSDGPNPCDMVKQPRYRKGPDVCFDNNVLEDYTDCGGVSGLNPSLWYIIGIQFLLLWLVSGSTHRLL
# ASSAY DETAILS: N-channel FLIPR assay (inhibition of K+-evoked calcium flux in neuronally differentiated IMR32 cells)
# SETUP CONDITIONS: 80 mM K+ stimulus, read-out: IC50 for the N-type calcium channel, as measured by the FLIPR assay
MEASURED ENDPOINT: IC50 (µM)

Below, 2 compounds whose answers are already recorded.
COc1ccccc1-c1cc(Nc2ccc3nc(-c4ccccc4)cc(N)c3c2)nc(N)n1    10.5
Nc1nc(Nc2ccc3nc(-c4ccccc4)cc(N)c3c2)cc(C(F)(F)F)n1    3.57

[1] Cc1cc(N)c2cc(Nc3cc(-c4cccc(F)c4)nc(N)n3)ccc2n1
[2] Cc1cc(N)c2cc(Nc3cc(-c4ccccc4F)nc(N)n3)ccc2n1
Of 1 versus 2 , which is the one with smaller reported IC50? # reply format: chosen label
2
(2: 2.37 µM, 1: 3.56 µM)
